System: S. pneumoniae (penicillin-resistant)
Method: MIC by broth microdilution
Type: cell-based
Measurement context: Streptococcus pneumoniae, N=352
Value type: MIC50 (µg/mL)

Molecule	MIC50 [µg/mL]
C=C[C@]1(C)C[C@@H](OC(=O)NC(=O)c2cnc(OC)c(N)c2)[C@]2(C)C(C)CC[C@]3(C[C@H](O)C(=O)[C@H]32)[C@@H](C)[C@@H]1O (stereo partly drawn)	0.25

(a) CC[C@H]1OC(=O)[C@H](C)C(=O)[C@H](C)[C@@H](O[C@@H]2O[C@H](C)C[C@H](N(C)C)[C@H]2O)[C@](C)(OC)C[C@@H](C)C(=O)[C@H](C)[C@H]2N(CCCCn3cnc(-c4cccnc4)c3)C(=O)O[C@]12C
(b) COc1c(N2C[C@@H]3CCCN[C@@H]3C2)c(F)cc2c(=O)c(C(=O)O)cn(C3CC3)c12
(c) CO/N=C(\C(=O)N[C@@H]1C(=O)N2C(C(=O)O)=C(COC(N)=O)CS[C@H]12)c1ccco1
(d) C[C@H]1COc2c(N3CCN(C)CC3)c(F)cc3c(=O)c(C(=O)O)cn1c23
Query string: Provide the items ranked by increasing MIC50. Show the ranking through the labels, in the order asked for.
Result string: b, a, d, c
